Measured protein stability index, listed per entry.
B1: EPB41L3 (parent)
chain: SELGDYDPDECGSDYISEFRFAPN

variants of: B1; test: protein stability index of a GFP-peptide fusion (GPS, HEK-293T) (PSI 1-6); higher = more stable; conditions: c terminus: a fixed tail appended;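 also: lentivirally expressed fusions sorted by FACS into six bins by GFP to DsRed ratio, PSI derived from sequencing read proportions per bin multiplied by bin number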
Keep the answer to the number alone.

For orientation, consider the following solved cases.
> print(dat)
   mutation.name         measurement.type  data.value
1            G4Q  protein stability index           2
2            S1L  protein stability index        2.02
3           G12N  protein stability index           2
4            L3R  protein stability index        2.03
5            Y6M  protein stability index        1.98

For the variant "G12A" , what protein stability index is on record?
2.02

For the variant "D9G" , what protein stability index is on record?
2.03

For the variant "S1G" , what protein stability index is on record?
1.99

For the variant "C11R" , what protein stability index is on record?
2.01
